All figures here come from ChEMBL document CHEMBL1208668.

system: Mus musculus; assay: Hepatoprotective activity against cadmium-induced hepatic damage in Swiss albino mouse assessed as inhibition of cadmium-induced elevation in serum ALT level at 3 mg/kg, po administered 7 days prior to first cadmium treatment followed by administration for 20 days concomitantly with cadmium; assay type: functional, organism-based; design: dose 3 mg/kg
The source made the active and inactive calls. The calls are words filed in the database; no cut-off is given here.
Hello, when you answer, please use one of the following outcomes: active, inactive

Tell me the recorded outcome of this test for COc1ccc2c(c1)CCCC21CC(=O)N(CCCCC[Se]C#N)C1=O (centres undefined) .
active

Hi, do you know how COc1ccc2c(c1)CCCC21CC(=O)N(CCCC[Se]C#N)C1=O (centres undefined) came out in this test?
active

Field: outcome | Entry: COc1ccc2c(c1)CCCC21CC(=O)N(CC[Se]C#N)C1=O (centres undefined)
inactive

Tell me the recorded outcome of this test for COc1ccc2c(c1)CCCC21CC(=O)N(CCC[Se]C#N)C1=O (centres undefined) .
inactive

* * *

tested on: Mus musculus; assay: Hepatoprotective activity against cadmium-induced hepatic damage in Swiss albino mouse assessed as inhibition of cadmium-induced elevation in serum ALT level at 3 mg/kg, po administered for 20 days concomitantly with cadmium; assay type: functional, organism-based; set-up: dose 3 mg/kg
Active and inactive are the calls of the source. The rule behind the calls is not given here.
Hi! Could you answer with just one of these? True = active, False = inactive

Which result was noted for this molecule in the test: COc1ccc2c(c1)CCCC21CC(=O)N(CCC[Se]C#N)C1=O (centres undefined)
False

Check the results log: what was the call for COc1ccc2c(c1)CCCC21CC(=O)N(CC[Se]C#N)C1=O (centres undefined) ?
False

Give the logged outcome of this assay for the following molecule: COc1ccc2c(c1)CCCC21CC(=O)N(CCCCC[Se]C#N)C1=O (centres undefined)
True

Outcome? COc1ccc2c(c1)CCCC21CC(=O)N(CCCC[Se]C#N)C1=O (centres undefined)
True
